Biological target: T1, huMICA*002 alpha 3-his (human)
T1 construct: whole construct entry: GS, alpha 3 domain, GNS, His8; also called MICA002.His; MICA*002 alpha3 construct
T1 chain: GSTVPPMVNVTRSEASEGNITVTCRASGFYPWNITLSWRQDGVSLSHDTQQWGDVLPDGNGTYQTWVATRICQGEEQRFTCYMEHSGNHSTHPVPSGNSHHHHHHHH
Test: SPR, Biacore 8K, antibody on Protein A chip
readout-label: Kd (nM)
Write the answer as a number in nM, unit excluded.

{"columns": ["binder", "observed"],
 "data": [
  ["13A9v2 (antibody, IgG1, V domains shown, humanized variant of 13A9) VH: EVQLVQSGAEVKKPGASVKVSCKASGYAFTNYLIEWVRQAPGQGLEWIGAINPGSGATNYNEKFKDRATLTADKSTNTAYLELSSLRSEDTAVYFCARFLGNYFDNWGQGTLVTVSS VL: DIQMTQSPSSLSASVGDRVTITCRASGNIHSYLAWYQQKPGKAPKLLIYYAETLADGVPSRFSGSGSGTDFTLTISSLQPEDFATYYCQQFWTTPYTFGQGTKVEIK", 4.44],
  ["15F11 (antibody, V domains shown, mouse variable domains) VH: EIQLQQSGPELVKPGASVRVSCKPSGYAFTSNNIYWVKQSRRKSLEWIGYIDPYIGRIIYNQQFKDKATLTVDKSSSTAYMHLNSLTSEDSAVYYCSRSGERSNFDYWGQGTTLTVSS VL: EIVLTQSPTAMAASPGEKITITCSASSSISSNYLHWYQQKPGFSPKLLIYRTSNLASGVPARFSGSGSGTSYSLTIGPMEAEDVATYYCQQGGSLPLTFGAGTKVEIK", 2.21],
  ["13A9v5 (antibody, IgG1, V domains shown, humanized variant of 13A9) VH: EVQLVQSGAEVKKPGSSVKVSCKASGYAFTNYLIEWVRQAPGQGLEWIGAINPGSGATNYNEKFKDRATLTADKSTNTAYMELSSLRSEDTAVYFCARFLGNYFDNWGQGTLVTVSS VL: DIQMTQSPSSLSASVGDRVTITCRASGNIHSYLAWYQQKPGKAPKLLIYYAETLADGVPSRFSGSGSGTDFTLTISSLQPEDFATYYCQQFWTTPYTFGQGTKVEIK", 4.27]
]}

Please find the next binder below.
Exercise: Consider the binder 1D5v21 (antibody, IgG1, V domains shown, humanized variant of 1D5) VH: EIQLVQSGAEVKKPGASVKVSCKASGYAFTSQNIYWVRQAPGQGLEWIGYIEPYNVVPMYNPKFKGRATITVDKSTSTAYLELSSLRSEDTAVYYCARSGSSNFDYWGQGTLVTVSS VL: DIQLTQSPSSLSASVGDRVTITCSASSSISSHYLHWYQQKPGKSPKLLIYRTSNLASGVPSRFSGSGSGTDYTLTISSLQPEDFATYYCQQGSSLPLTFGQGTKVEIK and give its measured Kd.
Key: 1.35
